Recorded values, source DBAASP.

Quick record: MIC, Candida albicans ATCC 2002.

Given item `CC(C)C[C@H](NC(=O)CNC(=O)[C@H](Cc1ccccc1)NC(=O)[C@H](CC(C)C)NC(=O)[C@H](CCCN=C(N)N)NC(=O)[C@H](CC(C)C)NC(=O)[C@H](Cc1c[nH]c2ccccc12)NC(=O)CNC(=O)CNC(=O)[C@H](CO)NC(=O)[C@H](CCCCN)NC(=O)[C@H](CC(C)C)NC(=O)[C@H](C)NC(=O)[C@@H](N)CC(C)C)C(=O)N[C@@H](CCCCN)C(=O)N[C@@H](CC(=O)O)C(=O)N[C@@H](CCCCN)C(=O)N[C@@H](CCCCN)C(=O)N[C@@H](Cc1cnc[nH]1)C(N)=O` , the value recorded as its MIC is ≥ 35 µM

Given item `CC(C)C[C@H](NC(=O)[C@H](CC(C)C)NC(=O)[C@H](CCCCN)NC(=O)[C@H](CCCCN)NC(=O)[C@@H](NC(=O)[C@H](C)N)C(C)C)C(=O)N[C@@H](CCCN=C(N)N)C(=O)N[C@@H](Cc1c[nH]c2ccccc12)C(=O)N[C@@H](Cc1c[nH]c2ccccc12)C(=O)N[C@@H](CO)C(=O)N[C@@H](CCCN=C(N)N)C(=O)N[C@@H](Cc1c[nH]c2ccccc12)C(=O)N[C@@H](Cc1c[nH]c2ccccc12)C(=O)N[C@@H](CCCCN)C(=O)N[C@@H](CCCCN)C(=O)O` , the value recorded as its MIC is ≥ 96.5 µM

Given item `CC[C@H](C)[C@H](NC(=O)CN)C(=O)N[C@@H](Cc1ccccc1)C(=O)N[C@@H](CC(C)C)C(=O)N[C@@H](CCCCN)C(=O)N[C@H](C(=O)N[C@@H](CC(C)C)C(=O)NCC(=O)N[C@H](C(=O)NCC(=O)N[C@@H](CCCCN)C(=O)N[C@@H](CCCCN)C(=O)N[C@H](C(=O)N[C@@H](CC(C)C)C(=O)N[C@H]1CSSC[C@@H](C(=O)O)NC(=O)[C@H](CC(C)C)NC(=O)CNC(=O)[C@H](CO)NC(=O)[C@H](C(C)C)NC(=O)CNC1=O)C(C)C)C(C)C)C(C)C` , the value recorded as its MIC is 5.17 µM

Given item `CC(C)[C@H](N)C(=O)N[C@@H](CCCCN)C(=O)N[C@@H](CCCN=C(N)N)C(=O)N[C@@H](Cc1c[nH]c2ccccc12)C(=O)N[C@@H](CCCCN)C(=O)N[C@@H](CCCCN)C(=O)N[C@@H](Cc1c[nH]c2ccccc12)C(=O)N[C@@H](CCCN=C(N)N)C(=O)N[C@@H](Cc1c[nH]c2ccccc12)C(=O)N[C@@H](CCCCN)C(=O)N[C@@H](Cc1c[nH]c2ccccc12)C(=O)N[C@@H](CCCCN)C(=O)N[C@@H](CCCCN)C(=O)N[C@@H](Cc1c[nH]c2ccccc12)C(=O)N[C@H](C(N)=O)C(C)C` , the value recorded as its MIC is 0.265 µM

Given item `CC[C@H](C)[C@H](NC(=O)[C@H](CCCCN)NC(=O)[C@H](CCCCN)NC(=O)[C@H](C)NC(=O)[C@H](CC(C)C)NC(=O)[C@H](CC(N)=O)NC(=O)[C@@H](NC(=O)[C@@H](NC(=O)[C@@H](NC(=O)[C@H](CC(N)=O)NC(=O)[C@H](CC(C)C)NC(=O)[C@@H](NC(=O)[C@@H](N)CC(N)=O)[C@@H](C)CC)[C@@H](C)O)[C@@H](C)CC)[C@@H](C)CC)C(=O)N[C@@H](CC(C)C)C(N)=O` , the value recorded as its MIC is 9.5 µM
